# Tested on: Saccharomyces cerevisiae
# protocol-details: protein stability index of tFT-peptide fusion (C-terminal peptide) (PSI (0-1 scale)); higher = more stable (slower turnover)
# experimental-context: genetic background: wild type; temperature: 30 C
readout: protein stability index
Enter the number alone.

Worked cases, protein stability index given:
FILLIFLSLLSP: 0.321
KKKKKSKKKETR: 0.807
RGRVLDTRDWGP: 0.666

Problem: What is its protein stability index for Saccharomyces cerevisiae? Entry: `CYPFSGLWPPPP`
Result: 0.717

Problem: GET /values?readout=protein stability index&system=Saccharomyces cerevisiae&item= `LRPGVRHFRECV`
Result: 0.627

Problem: What measured protein stability index is associated with `EKGWFDLGGCQV` on Saccharomyces cerevisiae?
Result: 0.723

* * *

# Tested on: Saccharomyces cerevisiae
# protocol-details: protein stability index of tFT-peptide fusion (C-terminal peptide) (PSI (0-1 scale)); higher = more stable (slower turnover)
# experimental-context: genetic background: wild type; temperature: 30 C
Outcome label depends on protein stability index relative to 0.7: at/above gives Yes, below gives No.

MGGGGARAVVVG: No
NNQKTKLNEKNC: No
LHTLPLVLSLPA: No
PPLRFLSVSSSP: No
SPPPPSPRFPSP: No

Problem: In plain terms: is recorded protein stability index at least 0.7 for `PPLPPPPASPPP` ?
Result: No

Problem: Is the recorded value of protein stability index equal to or greater than 0.7 for this sequence? `KSVSIKGKFTSK`
Result: No

Problem: Determine whether measured protein stability index meets or exceeds 0.7 for `GCFVDRVYVVVV`
Result: No

Problem: Check this sequence for protein stability index at or above 0.7: `FKVARGVHCGEG`
Result: No

Problem: Decide: protein stability index of `GGGGSAGAGGGG` >= 0.7?
Result: No

Problem: I'd appreciate it if you could say whether `RRHGDVGFGVGW` has protein stability index at least equal to 0.7.
Result: Yes

Problem: Exam item: decide whether the reported protein stability index for `SGVLSLVDVWTG` is at least 0.7.
Result: Yes

Problem: Does the reported protein stability index for `RYNRVVCTEFHL` fall at or above the 0.7 mark?
Result: No

Problem: Check the entry `RPPINRLCPWLL` : does protein stability index equal or exceed 0.7?
Result: No

Problem: Determine whether this sequence has protein stability index no lower than 0.7: `CYVFLCGSFVFV`
Result: No

Problem: Could you please find out whether `LGGGGGVECRVG` has protein stability index that meets 0.7 or exceeds it?
Result: No

Problem: Does protein stability index meet or surpass 0.7 for `PLCLFPPLLVFL` ?
Result: No

Problem: Decide: protein stability index of `RHIPSIILAHVV` >= 0.7?
Result: No

Problem: // inclusive: protein stability index at least 0.7? input: `PHLHHPPPPISA`
Result: No

Problem: State whether the measured protein stability index reaches 0.7, counting equality as reaching it, for `LGEDRVKYQKLW`
Result: Yes

Problem: For this sequence, is measured protein stability index 0.7 or higher? `HHRLRQGLRRIN`
Result: No

Problem: Test whether the sequence `GPPHSGPIYLFP` records protein stability index of 0.7 or higher.
Result: No

Problem: Exam item: decide whether the reported protein stability index for `LGGGGRGFAGRK` is at least 0.7.
Result: No

Problem: Identify whether the reported protein stability index of the following sequence is 0.7 or greater: `GVGGVLLCCCIV`
Result: No

Problem: Can `RCNCTTTTLRSK` be said to have protein stability index at or above 0.7?
Result: No

Problem: # check: protein stability index of `PVVRISRLSFFA` is greater than or equal to 0.7
Result: No

Problem: Textbook exercise: given the entry `RLFVRIQLSLLF` , state whether its protein stability index is greater than or equal to 0.7.
Result: No

Problem: Form field: protein stability index at least 0.7? Entry: `ALLLLLRRFFLV`
Result: No

Problem: Evaluate `VFCGGGRFRCSR` : protein stability index at minimum 0.7?
Result: No

Problem: Is protein stability index at least 0.7? Consider `WECGRVSVIRRC`
Result: No

* * *

# Test system: Saccharomyces cerevisiae
# protocol-details: protein stability index of tFT-peptide fusion (C-terminal peptide) (PSI (0-1 scale)); higher = more stable (slower turnover)
# experimental-context: genetic background: cdc34-1; temperature: 37 C
readout: protein stability index
Respond with the number and no other words.

Problem: Which protein stability index is reported for this sequence? `VFFFFSLVNFRV`
Result: 0.546

Problem: What does the record list as protein stability index for `FIRLFLVSFFIS` ?
Result: 0.405

Problem: What protein stability index value was documented for this sequence, `APPHPPPATFLS` ?
Result: 0.643

Problem: Field request: protein stability index | item: `SGRGFSFVLCTV`
Result: 0.539

Problem: Item under review: `RGCFVLRKTHLL` . Reported protein stability index?
Result: 0.635

Problem: Which protein stability index reading was recorded for the sequence `LLLRSSRLRVLS` ?
Result: 0.543

Problem: Look at this sequence and give its reported protein stability index. `TGVPNPSVAVMC`
Result: 0.639

Problem: Would you mind telling me what protein stability index value was observed for `VCRGWCVVRYIL` ?
Result: 0.593

* * *

# Tested on: Saccharomyces cerevisiae
# protocol-details: protein stability index of tFT-peptide fusion (C-terminal peptide) (PSI (0-1 scale)); higher = more stable (slower turnover)
# experimental-context: genetic background: wild type; temperature: 30 C
The following sequences are listed with their measured protein stability index values.
Could you respond with only the numeric value?

EERGESRGWRVK: 0.604
CTLVFLFFDLCS: 0.405
KCLCSKSGSWPC: 0.685
FARLTSSQGGKD: 0.68
SSRVSLSTVCLL: 0.585

Problem: For the record `GGAGSFVEKEID` , what value of protein stability index is listed for Saccharomyces cerevisiae?
Result: 0.69

Problem: Notebook entry, Saccharomyces cerevisiae assay: protein stability index of `ILAVMFEIYAIL` = ?
Result: 0.359

Problem: Query the reported protein stability index for Saccharomyces cerevisiae; item: `PPPTSSPSPSIL`
Result: 0.741

Problem: Please tell me: protein stability index of `SGLVHVLILGAC` , system Saccharomyces cerevisiae?
Result: 0.45

Problem: Given the entry `WLDDCVRVGMRI` , what protein stability index was observed with Saccharomyces cerevisiae?
Result: 0.672

Problem: Query the reported protein stability index for Saccharomyces cerevisiae; item: `LFQKRAIGGAWL`
Result: 0.742

Problem: What value of protein stability index on Saccharomyces cerevisiae does `IRKDRGYETGKR` have?
Result: 0.675

Problem: What reported protein stability index corresponds to `CPALTFCLLLSS` on Saccharomyces cerevisiae?
Result: 0.457

Problem: API: value(readout= protein stability index, system= Saccharomyces cerevisiae, query= `TNKKQIEPSKIR` )
Result: 0.763

* * *

# Tested on: Saccharomyces cerevisiae
# protocol-details: protein stability index of tFT-peptide fusion (C-terminal peptide) (PSI (0-1 scale)); higher = more stable (slower turnover)
# experimental-context: genetic background: wild type; temperature: 30 C
I would appreciate it if you labelled entries 1 (yes) when protein stability index is 0.7 or higher, otherwise 0 (no).

DKKKKKSKCVIL [RHO5 C-terminal 12 aa]: 1 (yes)
RIAAGDGDDDDE [QCR9 C-terminal 12 aa]: 0 (no)
QIILQKEGVLDK [KCC4 C-terminal 12 aa]: 0 (no)
VGDLEAGLRRKK [IMG1 C-terminal 12 aa]: 0 (no)
GNNGNNNNTTNL [PET123 C-terminal 12 aa]: 0 (no)
LPPGLNSKKNIK [EAP1 C-terminal 12 aa]: 0 (no)
LASVRLSWYSII [YGR204C-A C-terminal 12 aa]: 0 (no)
RATLNSVNSFLM [RIT1 C-terminal 12 aa]: 0 (no)
QTVRKLDMDFEV [REV1 C-terminal 12 aa]: 0 (no)
SDVAKQLAALGY [RPL16A C-terminal 12 aa]: 0 (no)

Problem: Given the entry RRHFSERRLENK [YPR074W-A C-terminal 12 aa] , answer whether its protein stability index meets or surpasses 0.7.
Result: 1 (yes)

Problem: Hi, just wondering whether TDGLNVWKTISV [RRB1 C-terminal 12 aa] shows protein stability index of 0.7 or higher.
Result: 0 (no)

* * *

# Test system: Saccharomyces cerevisiae
# protocol-details: protein stability index of tFT-peptide fusion (C-terminal peptide) (PSI (0-1 scale)); higher = more stable (slower turnover)
# experimental-context: genetic background: cdc53-1; temperature: 37 C
Below, each entry is listed with its recorded protein stability index.
Give the figure by itself; no unit, no explanation.

NFFLLFFFFLSF: 0.488
VIWVLGALASWG: 0.63

Problem: Item under review: `VFVFLFVFLFLL` . Reported protein stability index?
Result: 0.138

Problem: // lookup protein stability index for `FFGRWWWSFLLA`
Result: 0.634

Problem: What does the record list as protein stability index for `CYVFLCGSFVFV` ?
Result: 0.499

Problem: Recorded protein stability index for `QVVWAVPRICLV` , please?
Result: 0.567

Problem: Consider the sequence shown here: `GLFFLCLLSMCF` What is its recorded protein stability index?
Result: 0.303

Problem: # get_value(readout='protein stability index', item= `VSTVCLDFSPFL` )
Result: 0.766

Problem: Quick one: protein stability index for `LSLFPFLPSPCP` ?
Result: 0.777

Problem: Given `MWFVGLCLHFFM` , state its recorded protein stability index.
Result: 0.55

Problem: # lookup: protein stability index of `IKCVPLVWRLTV`
Result: 0.594
